Experiment: Stability of prodrugs / release of parent drug in Simulated Gastric Fluid (SGF)
Type: in vitro ADME
Settings: simulated gi fluid, 3 h, 1 µM, pH 1.2
In this section we review reported Prodrug Remaining (%) values for a set of compounds.
# unit: % | format: bare number

// worked examples, Prodrug Remaining (%) included
compound="COc1ccc2cc([C@H](C)C(=O)OCCCO[N+](=O)[O-])ccc2c1 [II-D2-X3, reference compound]" quantitative_readout=100.00
compound="CCC(OC(=O)[C@@H](C)c1ccc2cc(OC)ccc2c1)O[N+](=O)[O-] (stereo partly shown) [I-D2-R2]" quantitative_readout=6.77
compound="COc1ccc2cc([C@H](C)C(=O)OCCCCO[N+](=O)[O-])ccc2c1 [II-D2-X4, reference compound]" quantitative_readout=100.00

Please examine the following record next.
Please report the measured Prodrug Remaining (%) for COc1ccc2cc([C@H](C)C(=O)OCCO[N+](=O)[O-])ccc2c1 [II-D2-X2, reference compound] 99.19

---

A collection of molecules and their measured Prodrug Remaining (%)
Experiment: Stability of prodrugs / release of parent drug in Simulated Gastric Fluid (SGF)
Assay type: in vitro ADME
Details: simulated gi fluid, 0 h, 1 µM, pH 1.2
The reply should be a number in %, with the unit left off.

molecule="CCCCC(OC(=O)[C@@H](C)c1ccc2cc(OC)ccc2c1)O[N+](=O)[O-] (stereo partly shown) [I-D2-R4]" quantitative_readout=100
molecule="COc1ccc2cc([C@H](C)C(=O)OCCCCO[N+](=O)[O-])ccc2c1 [II-D2-X4, reference compound]" quantitative_readout=100.00
molecule="COc1ccc2cc([C@H](C)C(=O)OCCCO[N+](=O)[O-])ccc2c1 [II-D2-X3, reference compound]" quantitative_readout=100.00
molecule="CCC(OC(=O)[C@@H](C)c1ccc2cc(OC)ccc2c1)O[N+](=O)[O-] (stereo partly shown) [I-D2-R2]" quantitative_readout=100
molecule="CCCC(OC(=O)[C@@H](C)c1ccc2cc(OC)ccc2c1)O[N+](=O)[O-] (stereo partly shown) [I-D2-R3]" quantitative_readout=100

For COc1ccc2cc([C@H](C)C(=O)OCCO[N+](=O)[O-])ccc2c1 [II-D2-X2, reference compound] , write its Prodrug Remaining (%). 100.00

Tell us which Prodrug Remaining (%) value is on record for COc1ccc2cc([C@H](C)C(=O)OC(C)O[N+](=O)[O-])ccc2c1 (stereo partly shown) [I-D2-R1] 100.00
